test system: Hep 3B2; test: cells; settings: Homo sapiens, Hep3B, 72 h
pIC50: −log10 of the molar value.
measurementName: pIC50

Solved cases (3 shown):
{"smiles": "COCCSc1cc(NC(=O)N2CCCc3cc(CN4CCOCC4=O)c(C=O)nc32)ncc1C#N", "targetSystem": "Hep 3B2", "pIC50": 7.68}
{"smiles": "COCCNc1cc(NC(=O)N2CCCc3cc(CN4CCOCC4=O)c(C=O)nc32)ncc1C#N", "targetSystem": "Hep 3B2", "pIC50": 8.05}
{"smiles": "CO[C@@H]1CCN(c2cc(NC(=O)N3CCCc4cc(CN5CCOC5=O)c(C=O)nc43)ncc2C#N)C1", "targetSystem": "Hep 3B2", "pIC50": 8.00}

(I) CO[C@H]1CCN(c2cc(NC(=O)N3CCCc4cc(CN5CCOCC5=O)c(C=O)nc43)ncc2C#N)C1
(II) COC[C@H](C)Nc1cc(NC(=O)N2CCCc3cc(CN4CC[C@H](OC)C4=O)c(C=O)nc32)ncc1C#N
(III) COc1ccncc1Nc1cc(NC(=O)N2CCCc3cc(CN4CCOCC4=O)c(C=O)nc32)ncc1C#N
(IV) COC[C@@H](C)Oc1cc(NC(=O)N2CCCc3cc(CN4CCOCC4=O)c(C=O)nc32)ncc1C#N
(V) CO[C@@H]1CCC[C@H]1Nc1cc(NC(=O)N2CCCc3cc(CN4CCOCC4=O)c(C=O)nc32)ncc1C#N
Returns the items ordered by pIC50, from maximum to minimum. Rank the items, then write their labels in that order. V, IV, II, I, III
(V: 9.00, IV: 8.54, II: 7.87, I: 7.60, III: 7.16)

====

biological target: Vascular endothelial growth factor receptor 3 (Homo sapiens)
Sequence (P35916 whole entry): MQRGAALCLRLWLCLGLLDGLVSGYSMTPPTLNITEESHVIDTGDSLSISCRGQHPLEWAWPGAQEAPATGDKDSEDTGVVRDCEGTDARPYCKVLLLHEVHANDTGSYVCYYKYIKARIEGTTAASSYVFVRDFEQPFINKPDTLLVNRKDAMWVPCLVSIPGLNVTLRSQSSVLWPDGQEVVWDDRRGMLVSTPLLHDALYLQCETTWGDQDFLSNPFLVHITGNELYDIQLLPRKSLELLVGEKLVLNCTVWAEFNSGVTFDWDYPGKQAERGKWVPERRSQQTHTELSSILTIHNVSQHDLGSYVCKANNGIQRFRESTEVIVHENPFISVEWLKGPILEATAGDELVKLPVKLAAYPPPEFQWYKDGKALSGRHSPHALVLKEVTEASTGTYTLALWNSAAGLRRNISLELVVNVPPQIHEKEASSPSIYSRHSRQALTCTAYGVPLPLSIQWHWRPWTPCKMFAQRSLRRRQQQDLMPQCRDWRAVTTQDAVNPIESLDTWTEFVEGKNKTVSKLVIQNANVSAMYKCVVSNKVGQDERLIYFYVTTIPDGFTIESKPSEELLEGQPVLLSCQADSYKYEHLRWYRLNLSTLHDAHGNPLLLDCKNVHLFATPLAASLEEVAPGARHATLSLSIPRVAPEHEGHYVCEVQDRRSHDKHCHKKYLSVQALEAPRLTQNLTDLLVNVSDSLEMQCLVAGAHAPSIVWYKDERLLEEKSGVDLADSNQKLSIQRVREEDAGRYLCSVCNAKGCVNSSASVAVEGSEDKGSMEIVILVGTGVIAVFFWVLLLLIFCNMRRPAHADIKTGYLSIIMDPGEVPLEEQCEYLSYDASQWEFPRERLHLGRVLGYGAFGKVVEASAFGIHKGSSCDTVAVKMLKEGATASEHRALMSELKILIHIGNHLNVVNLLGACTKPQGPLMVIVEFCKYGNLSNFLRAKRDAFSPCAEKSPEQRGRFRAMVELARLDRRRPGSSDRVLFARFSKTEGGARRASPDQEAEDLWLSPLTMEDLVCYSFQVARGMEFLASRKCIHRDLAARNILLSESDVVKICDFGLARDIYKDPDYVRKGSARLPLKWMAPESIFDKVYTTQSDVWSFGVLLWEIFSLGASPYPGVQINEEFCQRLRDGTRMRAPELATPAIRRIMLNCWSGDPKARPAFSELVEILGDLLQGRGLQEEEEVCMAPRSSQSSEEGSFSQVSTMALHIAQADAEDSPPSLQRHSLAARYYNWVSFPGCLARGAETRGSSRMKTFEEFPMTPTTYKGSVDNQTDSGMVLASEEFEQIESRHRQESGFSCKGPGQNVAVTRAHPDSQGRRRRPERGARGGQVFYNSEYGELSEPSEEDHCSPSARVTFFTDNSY
pIC50: −log10 of the molar value.
measurementName: pIC50

// fetch Vascular endothelial growth factor receptor 3 (Homo sapiens) pIC50 for COC[C@@H](C)Nc1cc(NC(=O)N2CCCc3cc(CN4CCCCOC4=O)c(C=O)nc32)ncc1C#N < 5.00

====

molecular target: Tyrosine-protein kinase SYK (Homo sapiens, UniProt P43405)
pIC50: −log10 of the molar value.
measurementName: pIC50

Provide the documented pIC50 with Tyrosine-protein kinase SYK (Homo sapiens, UniProt P43405) as the system for COC[C@@H](C)Nc1cc(NC(=O)N2CCCc3cc(CN4CCCCOC4=O)c(C=O)nc32)ncc1C#N < 5.00

====

experiment: Toxicity in female BALB/c mouse at 200 to 2000 mg/kg, ig administered as single dose measured after 14 days; format: organism-based; settings: in vivo, po
measurementName: NOAEL at 336 h (mg/kg/day)
Give the value, in units of mg/kg/day, as a plain number.

Which measured NOAEL at 336 h value corresponds to COC[C@@H](C)Nc1cc(NC(=O)N2CCCc3cc(CN4CCCCOC4=O)c(C=O)nc32)ncc1C#N ? 2000

====

target: Mast/stem cell growth factor receptor Kit (Homo sapiens, UniProt P10721)
Sequence (P10721 whole entry): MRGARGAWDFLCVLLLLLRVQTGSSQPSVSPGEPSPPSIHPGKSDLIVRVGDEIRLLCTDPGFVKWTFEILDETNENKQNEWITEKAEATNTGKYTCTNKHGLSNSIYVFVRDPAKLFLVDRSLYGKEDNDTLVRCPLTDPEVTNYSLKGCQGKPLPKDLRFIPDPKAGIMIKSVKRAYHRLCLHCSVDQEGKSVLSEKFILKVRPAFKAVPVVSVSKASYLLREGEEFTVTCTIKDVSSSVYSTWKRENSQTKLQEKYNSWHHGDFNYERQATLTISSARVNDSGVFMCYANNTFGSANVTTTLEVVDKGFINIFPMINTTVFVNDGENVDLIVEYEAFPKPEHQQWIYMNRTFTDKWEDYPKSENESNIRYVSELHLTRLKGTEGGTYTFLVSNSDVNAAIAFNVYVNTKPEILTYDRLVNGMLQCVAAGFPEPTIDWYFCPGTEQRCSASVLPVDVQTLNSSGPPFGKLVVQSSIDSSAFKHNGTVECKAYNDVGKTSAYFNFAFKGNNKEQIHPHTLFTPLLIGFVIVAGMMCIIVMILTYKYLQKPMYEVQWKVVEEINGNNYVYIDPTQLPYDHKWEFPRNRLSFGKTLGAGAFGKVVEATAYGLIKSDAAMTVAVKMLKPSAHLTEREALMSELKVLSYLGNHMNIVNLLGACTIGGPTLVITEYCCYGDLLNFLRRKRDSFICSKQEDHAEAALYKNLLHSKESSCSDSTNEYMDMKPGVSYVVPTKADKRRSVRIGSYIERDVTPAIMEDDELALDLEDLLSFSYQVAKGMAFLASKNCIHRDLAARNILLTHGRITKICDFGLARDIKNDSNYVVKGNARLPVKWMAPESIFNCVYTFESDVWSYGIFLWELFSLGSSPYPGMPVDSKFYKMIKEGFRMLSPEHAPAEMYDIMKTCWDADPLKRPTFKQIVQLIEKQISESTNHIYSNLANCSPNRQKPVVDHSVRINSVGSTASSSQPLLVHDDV
pIC50: −log10 of the molar value.
measurementName: pIC50

Given the entry COC[C@@H](C)Nc1cc(NC(=O)N2CCCc3cc(CN4CCCCOC4=O)c(C=O)nc32)ncc1C#N , what pIC50 was observed with Mast/stem cell growth factor receptor Kit (Homo sapiens, UniProt P10721)? < 5.00

Data origin: ChEMBL document CHEMBL4339212
